target or test system: Aminopeptidase N (Plasmodium falciparum FcB1/Columbia, UniProt O96935)
Sequence (O96935 whole entry): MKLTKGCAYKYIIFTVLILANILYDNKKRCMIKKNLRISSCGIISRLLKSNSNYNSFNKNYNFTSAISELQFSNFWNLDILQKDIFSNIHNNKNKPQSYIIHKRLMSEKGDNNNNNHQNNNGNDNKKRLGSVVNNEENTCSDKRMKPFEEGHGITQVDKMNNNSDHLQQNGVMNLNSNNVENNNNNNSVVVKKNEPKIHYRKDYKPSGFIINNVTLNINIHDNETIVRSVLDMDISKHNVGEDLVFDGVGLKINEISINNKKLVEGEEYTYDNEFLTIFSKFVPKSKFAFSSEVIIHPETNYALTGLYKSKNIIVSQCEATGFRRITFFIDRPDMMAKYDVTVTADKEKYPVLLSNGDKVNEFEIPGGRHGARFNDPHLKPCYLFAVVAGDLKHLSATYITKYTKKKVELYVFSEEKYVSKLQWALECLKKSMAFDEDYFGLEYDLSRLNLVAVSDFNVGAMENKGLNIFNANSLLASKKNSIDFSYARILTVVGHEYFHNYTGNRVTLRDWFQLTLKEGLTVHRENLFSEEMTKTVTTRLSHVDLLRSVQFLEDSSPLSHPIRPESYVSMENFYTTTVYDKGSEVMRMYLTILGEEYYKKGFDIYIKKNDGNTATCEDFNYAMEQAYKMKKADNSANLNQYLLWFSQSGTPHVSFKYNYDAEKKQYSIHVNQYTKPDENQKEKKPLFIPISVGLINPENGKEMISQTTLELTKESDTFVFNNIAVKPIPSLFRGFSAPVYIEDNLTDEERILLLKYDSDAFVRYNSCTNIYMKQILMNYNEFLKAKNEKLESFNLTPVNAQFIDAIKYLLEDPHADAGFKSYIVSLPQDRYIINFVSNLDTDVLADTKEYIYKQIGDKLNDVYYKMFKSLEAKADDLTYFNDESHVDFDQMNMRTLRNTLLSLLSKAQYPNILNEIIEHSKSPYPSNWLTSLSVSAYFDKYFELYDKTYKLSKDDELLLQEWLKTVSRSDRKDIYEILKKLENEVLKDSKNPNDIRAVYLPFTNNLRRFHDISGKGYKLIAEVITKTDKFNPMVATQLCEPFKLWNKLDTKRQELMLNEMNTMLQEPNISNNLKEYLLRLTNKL
method: malaria alanyl aminopeptidase activity blockers – biochemical, fluorogenic H-Leu-NHMec substrate, 1536-well (AID 1445)
Set-up: species or system Plasmodium falciparum 3D7, 3D7
Activity calls are given as the source filed them. How the calls were made is not given here.
The entries below are paired with their reported IC50.
measurement kind: IC50

molecule=CCOc1nc(N=C(N)N)nc2c(C)cccc12 reported="7.38 µM (active)"
molecule=Cc1cc(Cl)ccc1OCCCC(=O)NO reported="43.1 µM (active)"
molecule=CCN(CC)Cc1c(O)ccc2c(C)c(CC(=O)OC)c(=O)oc12 reported="40.4 µM (active)"
molecule=CCc1cc(=O)oc2c(CN3CCN(C)CC3)c(O)c(Cl)cc12 reported="35.9 µM (active)"
molecule=Cc1ccc(S(=O)(=O)N(NC2=NS(=O)(=O)c3ccccc32)C(=O)c2ccccc2)cc1 reported="46.8 µM (active)"
molecule=CCN(CC)Cc1c(O)c(Cl)cc2c(C)cc(=O)oc12 reported="48.6 µM (active)"
molecule="CCC(C)(C)n1nnnc1C(c1ccc2ncccc2c1)N1CCN(c2nc3ccccc3s2)CC1 (configuration not stated)" reported="51.1 µM (active)"
